- assayed system: Androgen receptor (Homo sapiens)
- Sequence (P10275 whole entry): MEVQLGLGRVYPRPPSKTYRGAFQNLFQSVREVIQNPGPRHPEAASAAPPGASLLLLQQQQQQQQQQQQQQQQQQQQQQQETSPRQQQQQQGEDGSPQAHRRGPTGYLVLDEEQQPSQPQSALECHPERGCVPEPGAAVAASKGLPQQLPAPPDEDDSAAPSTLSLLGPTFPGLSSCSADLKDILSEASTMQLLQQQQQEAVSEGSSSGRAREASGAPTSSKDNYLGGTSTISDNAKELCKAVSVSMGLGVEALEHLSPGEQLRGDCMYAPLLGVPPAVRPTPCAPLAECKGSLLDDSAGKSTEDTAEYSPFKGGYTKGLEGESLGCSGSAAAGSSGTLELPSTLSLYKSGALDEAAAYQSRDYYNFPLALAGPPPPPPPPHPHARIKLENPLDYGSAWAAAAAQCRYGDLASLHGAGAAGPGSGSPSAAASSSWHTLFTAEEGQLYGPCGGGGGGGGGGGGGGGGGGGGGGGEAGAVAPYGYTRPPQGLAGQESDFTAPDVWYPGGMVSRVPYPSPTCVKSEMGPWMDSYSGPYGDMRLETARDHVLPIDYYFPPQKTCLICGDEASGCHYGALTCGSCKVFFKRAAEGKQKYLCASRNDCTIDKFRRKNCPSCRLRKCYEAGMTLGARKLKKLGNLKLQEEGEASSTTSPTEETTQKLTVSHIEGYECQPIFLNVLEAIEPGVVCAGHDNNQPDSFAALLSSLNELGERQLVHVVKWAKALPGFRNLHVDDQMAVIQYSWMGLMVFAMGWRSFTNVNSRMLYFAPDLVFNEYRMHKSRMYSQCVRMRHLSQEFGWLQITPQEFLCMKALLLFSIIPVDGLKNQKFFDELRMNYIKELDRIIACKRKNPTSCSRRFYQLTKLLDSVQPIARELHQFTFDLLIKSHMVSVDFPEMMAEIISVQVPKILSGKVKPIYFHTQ
parameter measured: Ki

Kindly note: Androgen receptor (Homo sapiens), CN(C)c1ccc([C@H]2CC3(C)[C@@H](CC[C@]3(O)CCCO)[C@@H]3CCC4=CC(=O)CCC4=C32)cc1 (single isomer, unassigned) , Ki value reported: > 100 nM

* * *

Consider the following molecules and their measured Max inhibition readings.
- assayed system: Progesterone receptor (Homo sapiens)
- Sequence (P06401 whole entry): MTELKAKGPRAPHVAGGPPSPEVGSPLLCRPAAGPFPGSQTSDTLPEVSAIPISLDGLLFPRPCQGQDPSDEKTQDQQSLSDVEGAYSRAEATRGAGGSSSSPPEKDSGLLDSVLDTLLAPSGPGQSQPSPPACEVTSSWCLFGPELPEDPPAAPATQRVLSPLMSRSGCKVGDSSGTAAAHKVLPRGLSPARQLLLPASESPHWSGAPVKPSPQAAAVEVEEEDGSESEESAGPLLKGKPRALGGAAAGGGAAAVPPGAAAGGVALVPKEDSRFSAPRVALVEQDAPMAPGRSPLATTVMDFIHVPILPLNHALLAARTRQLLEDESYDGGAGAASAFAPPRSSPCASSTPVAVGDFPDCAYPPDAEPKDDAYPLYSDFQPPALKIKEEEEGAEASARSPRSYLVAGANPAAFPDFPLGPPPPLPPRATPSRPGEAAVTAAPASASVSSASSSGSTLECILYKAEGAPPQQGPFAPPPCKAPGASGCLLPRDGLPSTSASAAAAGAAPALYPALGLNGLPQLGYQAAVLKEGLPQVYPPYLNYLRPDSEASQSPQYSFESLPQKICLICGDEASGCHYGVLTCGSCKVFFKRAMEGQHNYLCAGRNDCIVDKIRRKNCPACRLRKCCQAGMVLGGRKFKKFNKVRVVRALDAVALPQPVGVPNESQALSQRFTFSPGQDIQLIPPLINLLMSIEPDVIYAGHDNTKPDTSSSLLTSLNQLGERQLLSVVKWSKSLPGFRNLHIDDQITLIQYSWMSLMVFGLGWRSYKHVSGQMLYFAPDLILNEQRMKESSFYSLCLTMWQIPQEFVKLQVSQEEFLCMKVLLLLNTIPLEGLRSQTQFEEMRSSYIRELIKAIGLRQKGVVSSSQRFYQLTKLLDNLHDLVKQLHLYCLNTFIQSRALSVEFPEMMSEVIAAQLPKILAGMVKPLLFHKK
- cond: CV-1
Give the quantity in %, number only.

Examples from the recorded data:
| molecule | Max inhibition (%) |
| --- | --- |
| C=C1C(C)=CCC(C)(C)[C@@H]1Cc1cc(OC)c(Br)cc1OC(C)=O | 83 |
| C=C1C[C@H](CO)CC(C)(C)[C@@H]1Cc1cc(OC)c(Br)cc1O | 87 |

Kindly note: Progesterone receptor (Homo sapiens), C=C1C=C(C)CC(C)(C)C1Cc1ccc2nonc2c1 (centres undefined) , Max inhibition value reported: 72

* * *

Sequence of the target: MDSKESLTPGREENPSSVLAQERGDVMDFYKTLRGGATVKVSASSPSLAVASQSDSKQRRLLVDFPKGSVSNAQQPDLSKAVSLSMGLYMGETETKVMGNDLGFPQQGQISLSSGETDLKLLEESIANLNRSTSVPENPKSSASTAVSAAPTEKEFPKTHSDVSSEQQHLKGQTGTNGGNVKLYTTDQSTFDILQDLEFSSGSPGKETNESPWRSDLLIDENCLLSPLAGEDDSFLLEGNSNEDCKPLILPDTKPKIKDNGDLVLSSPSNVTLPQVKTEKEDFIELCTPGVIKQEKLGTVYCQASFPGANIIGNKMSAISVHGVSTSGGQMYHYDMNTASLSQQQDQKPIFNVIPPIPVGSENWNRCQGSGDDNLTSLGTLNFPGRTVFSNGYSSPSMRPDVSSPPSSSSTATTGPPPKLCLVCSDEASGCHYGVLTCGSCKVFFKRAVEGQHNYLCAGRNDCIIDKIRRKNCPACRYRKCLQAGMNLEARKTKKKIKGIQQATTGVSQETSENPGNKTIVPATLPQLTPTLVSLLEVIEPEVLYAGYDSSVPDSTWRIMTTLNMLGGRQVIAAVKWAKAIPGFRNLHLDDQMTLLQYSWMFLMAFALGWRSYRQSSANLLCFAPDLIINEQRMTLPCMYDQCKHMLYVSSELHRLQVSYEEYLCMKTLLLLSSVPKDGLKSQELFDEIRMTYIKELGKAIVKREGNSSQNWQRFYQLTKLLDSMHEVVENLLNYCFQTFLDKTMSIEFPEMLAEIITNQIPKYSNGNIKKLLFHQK
parameter measured: Ki (nM)
Give the quantity in nM, number only.

| molecule | Ki / nM |
| --- | --- |
| C=C1C=C(C)C[C@@H](C)[C@@H]1Cc1cc(OC)c(Br)cc1OC(C)=O | 2380 |

Recorded result, C=C1C=C(C)C(Cc2cc(OC)c(Br)cc2O)C(C)(C)C1 (stereo not given) , Ki: 2670

* * *

Let's go through some recorded IC50 values for Progesterone receptor (Homo sapiens, UniProt P06401) together.
Give the quantity in nM, number only.

Examples from the recorded data:
| molecule | value reported |
| --- | --- |
| C=C1C=C(C)CC(C)(C)C1Cc1cc(OC)c(Br)cc1OC(C)=O (stereo unspecified) | 770 |
| C=C1CCCC(C)(C)C1Cc1cc(OC)c(Br)cc1O (stereo unspecified) | 163 |
| C=C1[C@@H](Cc2cc(OC)c(Br)cc2O)C(C)(C)CC[C@@]1(C)O | 430 |
| C=C1CCC[C@H](C)[C@H]1Cc1cc(OC)c(Br)cc1O | 300 |
| C=C1CC[C@@H](Br)C(C)(C)[C@H]1Cc1cc(OC)c(Br)cc1O | 354 |
| C=C1C(C)=CCC(C)(C)[C@@H]1Cc1cc(OC)c(Br)cc1OC(C)=O | 210 |
| C=C1C=C(C)CC(C)(C)C1Cc1ccc([N+](=O)[O-])c(C)c1 (stereo unspecified) | 510 |
| C=C1C=C(C)CC(C)(C)C1Cc1ccc2nonc2c1 (stereo unspecified) | 775 |

Kindly note: Progesterone receptor (Homo sapiens, UniProt P06401), C=C1CCC(C)(C)C1Cc1cc(OC)c(Br)cc1O (stereo unspecified) , IC50 value reported: 250

Kindly note: Progesterone receptor (Homo sapiens, UniProt P06401), `C=C1C=C(C)C[C@@H](C)[C@@H]1Cc1cc(OC)c(Br)cc1OC(C)=O` , IC50 value reported: 147
